# Test system: Plasmodium berghei
# assay.name: Screen against P. berghei liver stage (PbLuc), transformed with Luciferase, at 10uM
# Format: functional, HepG2
# conditions: tested at 10 uM
About 8,600 (12%) of roughly 69,000 compounds showed an effect of 50% or more. This excerpt belongs to a sample that is enriched for strong results.
For each entry below, report its INHIBITION value.
Give bare numbers, in %.

The following molecules have reported results that may help.
>>> measured_number("O=C(CCc1cccc(Cl)c1Cl)N1CCOCC1c1ncon1 (stereo unspecified)")
33.8
>>> measured_number("CC(C)c1cc(C(=O)N2CCN(Cc3ccco3)CC2)n[nH]1")
14.3
>>> measured_number("C=c1occc1=C1NN=C2SC(C#N)C(N)=NN21 (stereo unspecified)")
-14.8
>>> measured_number("Cc1cc(C)c2cc(C(=O)N3CCN(Cc4ccco4)CC3)[nH]c2c1")
9.04
>>> measured_number("O=C(c1cc(Br)ccc1Cl)N1CCN(Cc2ccco2)CC1")
36.9

Note: attention shifts to another entry.
Look at this molecule and give its reported INHIBITION. O=C(c1cc(Br)c[nH]1)N1CCN(Cc2ccco2)CC1
55.4
